# PROCEDURE DETAILS: Cytotoxicity in HFF cells in parallel to cytomegalovirus assay
# CONDITION DETAILS: human, […]
QUANTITY KIND: CC50 at 14 days
Hey, just the number and the unit after it is fine.

[ask] Fill in the blank: the reported CC50 at 14 days of CCCCCCCCCCCCCCCCCCOCCOP(=O)(CO[C@H](CO)Cn1ccc(N)nc1=O)OCc1ccccc1 (stereo partly drawn) is ____.
[reply] 84.2 µM

[ask] Fill in the blank: the reported CC50 at 14 days of CCCCCCCCCCCCCCCCCCOCCOP(=O)(CO[C@H](CO)Cn1cnc2c(N)ncnc21)OCc1ccccc1 (stereo partly drawn) is ____.
[reply] 7.49 µM

[ask] Fill in the blank: the reported CC50 at 14 days of CCCCCCCCCCCCCCCCCCOCCOP(=O)(COCCn1cnc2c(N)ncnc21)OCc1ccccc1 (stereo not drawn) is ____.
[reply] 18.3 µM

These entries and their values trace back to patent US10076533B2.
